Reference source: patent US11608319B2

# testSystem: ROCK1 (Homo sapiens (Human))
# Sequence (Q13464 whole entry, species assumed): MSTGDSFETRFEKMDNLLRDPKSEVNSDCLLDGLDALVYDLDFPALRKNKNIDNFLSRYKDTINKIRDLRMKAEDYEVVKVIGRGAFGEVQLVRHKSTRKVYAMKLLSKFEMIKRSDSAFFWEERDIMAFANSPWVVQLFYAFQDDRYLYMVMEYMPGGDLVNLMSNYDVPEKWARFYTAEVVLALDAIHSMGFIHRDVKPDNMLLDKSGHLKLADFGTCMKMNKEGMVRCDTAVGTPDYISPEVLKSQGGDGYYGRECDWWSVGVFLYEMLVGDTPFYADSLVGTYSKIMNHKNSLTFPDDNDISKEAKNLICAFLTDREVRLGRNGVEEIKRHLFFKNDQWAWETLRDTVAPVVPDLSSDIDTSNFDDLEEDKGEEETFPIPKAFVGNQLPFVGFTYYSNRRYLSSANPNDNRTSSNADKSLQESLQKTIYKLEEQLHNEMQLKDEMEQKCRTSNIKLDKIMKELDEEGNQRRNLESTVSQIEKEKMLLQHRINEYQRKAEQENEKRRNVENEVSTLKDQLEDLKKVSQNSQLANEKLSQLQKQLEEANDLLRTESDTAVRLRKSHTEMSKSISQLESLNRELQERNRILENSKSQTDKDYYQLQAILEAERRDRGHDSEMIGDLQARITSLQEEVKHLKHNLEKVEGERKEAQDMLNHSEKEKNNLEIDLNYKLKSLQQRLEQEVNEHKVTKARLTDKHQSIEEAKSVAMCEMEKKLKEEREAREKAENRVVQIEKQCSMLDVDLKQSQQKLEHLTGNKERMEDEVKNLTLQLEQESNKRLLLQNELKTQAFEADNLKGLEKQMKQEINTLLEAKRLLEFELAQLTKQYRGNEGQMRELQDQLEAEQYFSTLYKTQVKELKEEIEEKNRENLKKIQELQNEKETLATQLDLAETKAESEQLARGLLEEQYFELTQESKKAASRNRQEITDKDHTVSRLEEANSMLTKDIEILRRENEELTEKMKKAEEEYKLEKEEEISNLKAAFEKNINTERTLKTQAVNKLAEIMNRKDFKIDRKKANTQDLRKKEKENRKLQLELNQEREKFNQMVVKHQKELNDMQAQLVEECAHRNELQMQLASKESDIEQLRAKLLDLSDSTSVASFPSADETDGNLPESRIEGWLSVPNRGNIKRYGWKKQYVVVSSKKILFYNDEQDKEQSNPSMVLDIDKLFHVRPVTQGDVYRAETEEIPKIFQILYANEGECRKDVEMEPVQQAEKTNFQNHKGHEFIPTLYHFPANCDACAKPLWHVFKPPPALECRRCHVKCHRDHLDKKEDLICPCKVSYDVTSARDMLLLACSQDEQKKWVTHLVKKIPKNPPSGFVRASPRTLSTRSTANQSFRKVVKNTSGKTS
# method: biochemical
# testSettings: read-out: ROCK1 IC50
pIC50: −log10 of the molar value. Where a name gives a salt, the structure may show the parent alone.
quantity: pIC50

// worked examples, pIC50 included
molecule | pIC50
NC[C@@H](C(=O)Nc1ccc2cnccc2c1)c1ccc(CO)cc1 [AR-13503, reference compound] | > 9.00
N#C/N=C(/NCc1ccccc1)Nc1ccc(-c2cn[nH]c2)cc1 [Compound 16, hydrochloride] | < 5.00
NCC(C(=O)Nc1ccc(-c2cn[nH]c2)cc1)c1ccc(C=O)cc1 (stereo not shown) [Compound 13, dihydrochloride] | > 9.00

Query molecule follows.
Problem: For ROCK1 (Homo sapiens (Human)), provide pIC50 of NCC(C(=O)Nc1ccc(Oc2cn[nH]c2)cc1)c1ccccc1 (stereo not shown) [Compound 18, dihydrochloride] please.
Result: < 5.00
